Field: pKi. Provide a value for each of the molecules that follow.
Biological target: Neuronal acetylcholine receptor; alpha4/beta2 (Rattus norvegicus, UniProt P09483+P12390)
Sequence (P09483 whole entry): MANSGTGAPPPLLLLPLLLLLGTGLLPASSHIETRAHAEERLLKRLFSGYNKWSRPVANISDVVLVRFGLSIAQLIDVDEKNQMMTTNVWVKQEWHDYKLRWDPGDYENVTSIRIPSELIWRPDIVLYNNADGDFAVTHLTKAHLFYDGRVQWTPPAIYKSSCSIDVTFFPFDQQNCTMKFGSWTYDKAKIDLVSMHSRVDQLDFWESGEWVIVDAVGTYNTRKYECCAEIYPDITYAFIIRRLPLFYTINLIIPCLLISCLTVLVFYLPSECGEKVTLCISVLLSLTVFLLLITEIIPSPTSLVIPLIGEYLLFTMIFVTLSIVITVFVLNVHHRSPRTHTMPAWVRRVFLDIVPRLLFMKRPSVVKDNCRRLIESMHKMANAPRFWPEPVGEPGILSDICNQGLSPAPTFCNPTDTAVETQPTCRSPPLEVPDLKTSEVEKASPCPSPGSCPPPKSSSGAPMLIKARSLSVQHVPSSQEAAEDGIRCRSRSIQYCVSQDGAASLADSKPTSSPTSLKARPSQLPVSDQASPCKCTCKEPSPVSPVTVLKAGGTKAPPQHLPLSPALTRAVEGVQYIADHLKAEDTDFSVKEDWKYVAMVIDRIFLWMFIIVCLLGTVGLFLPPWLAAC
Sequence (P12390 whole entry): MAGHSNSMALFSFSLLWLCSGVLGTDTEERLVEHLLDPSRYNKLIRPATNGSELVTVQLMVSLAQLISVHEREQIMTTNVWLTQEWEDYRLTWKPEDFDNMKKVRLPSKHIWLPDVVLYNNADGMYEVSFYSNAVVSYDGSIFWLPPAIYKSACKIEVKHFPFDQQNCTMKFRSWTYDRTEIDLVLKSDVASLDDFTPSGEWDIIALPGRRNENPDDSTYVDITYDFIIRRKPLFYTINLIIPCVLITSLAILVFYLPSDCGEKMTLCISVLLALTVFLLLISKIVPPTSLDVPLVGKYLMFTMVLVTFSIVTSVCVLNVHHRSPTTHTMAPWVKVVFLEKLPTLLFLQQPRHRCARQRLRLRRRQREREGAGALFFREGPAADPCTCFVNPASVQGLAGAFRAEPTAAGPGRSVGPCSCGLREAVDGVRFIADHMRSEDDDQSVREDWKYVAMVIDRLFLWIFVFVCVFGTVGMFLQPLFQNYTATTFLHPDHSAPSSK
Assay: Displacement of [3H]epibatidine from alpha-4-beta-2 nAChR in rat cerebral cortex
Here pKi is given on a logarithmic scale as minus log10 of the concentration in mol/L.

## Input Can you share its pKi? I mean this molecule: Cl.Cl.Cl.Clc1cccc(-c2cncc(C3CC4CCC3N4)c2)c1 (racemic)
## Output 9.77

## Input So what's the measured pKi for this one? Fc1ccc(-c2cncc(C3CC4CCC3N4)c2)cc1 (configuration not stated)
## Output 9.82

## Input Param item = Cl.Fc1ncc(C2CC3CCC2N3)cc1-c1cccc(Cl)c1 (racemic) ; retrieve measured pKi.
## Output 10.14

## Input Which value of pKi has been reported for Cl.Cl.O=[N+]([O-])c1cccc(-c2cncc(C3CC4CCC3N4)c2)c1 (racemic) in the records?
## Output 9.77

## Input Entry Cl.Nc1ccc(-c2cc(C3CC4CCC3N4)cnc2F)cc1 (racemic) has what pKi?
## Output 10.02

## Input What value of measured pKi is listed for Cl.Fc1cccc(-c2cc(C3CC4CCC3N4)cnc2F)c1 (racemic) ?
## Output 10.06

## Input # pKi lookup, item Cl.O=[N+]([O-])c1cccc(-c2cc(C3CC4CCC3N4)cnc2F)c1 (racemic)
## Output 10.28
